These measurements were taken from ChEMBL document CHEMBL4002623.

Kindly supply the reported MIC values for the records listed here.
test system: Enterococcus faecium; assay: Antibacterial activity against vancomycin-resistant Enterococcus faecium 05-8 by agar dilution method; assay type: functional
Report only the number, with the unit µg/mL understood.

Q. Given the compound N=C(c1ccc2cc(-c3ccc(Oc4ccc(-c5cc6ccc(C(=N)N7CCC7)cc6[nH]5)cc4)cc3)[nH]c2c1)N1CCC1 , write its reported MIC.
A. 2

Q. Given the compound CN(C)C(=N)c1ccc2cc(-c3ccc(Oc4ccc(-c5cc6ccc(C(=N)N(C)C)cc6[nH]5)cc4)cc3)[nH]c2c1 , write its reported MIC.
A. 2

Q. For the compound N=C(NC1CCCCC1)c1ccc2cc(-c3ccc(Oc4ccc(-c5cc6ccc(C(=N)NC7CCCCC7)cc6[nH]5)cc4)cc3)[nH]c2c1 , give its measured MIC value.
A. 4

Q. Determine its reported MIC: CC1CCN(C(=N)c2ccc3cc(-c4ccc(Oc5ccc(-c6cc7ccc(C(=N)N8CCC(C)CC8)cc7[nH]6)cc5)cc4)[nH]c3c2)CC1
A. 128
